Tested on: BT474
Assay: Cytotoxicity assay (SRB), BT474
Type: cell-based
Conditions: Homo sapiens, BT-474, 144 h, BT474 cells, 6 days, SRB; read-out: In Vitro Cellular Activity IC50 BT474
QUANTITY_MEASURED: log10 of IC50 (log10 of the value in µM)

COMPOUND: O=C1NC(=O)c2ccc(-c3ccco3)cc2/C1=C/NCc1cc(O)ccc1I [Example 503]
SYSTEM_NAME: BT474
EXPERIMENTAL_RESULT: 0.20

COMPOUND: CN1CCCC1c1ccc(N/C=C2\C(=O)NC(=O)c3ccc(I)cc32)nc1 (stereo not drawn) [Example 460]
SYSTEM_NAME: BT474
EXPERIMENTAL_RESULT: 1.00

COMPOUND: CN1Cc2ccc(N/C=C3\C(=O)NC(=O)c4ccc(Br)cc43)cc2C1 [Example 868]
SYSTEM_NAME: BT474
EXPERIMENTAL_RESULT: 0.83

COMPOUND: COc1ccc(-c2ccc3c(c2)C(=CNc2ccc(N4CCN(C)CC4)cc2)C(=O)NC3=O)cc1 [Example 682]
SYSTEM_NAME: BT474
EXPERIMENTAL_RESULT: 0.40

COMPOUND: CCN1CCN(c2ccc(N/C=C3\C(=O)NC(=O)c4ccc(-c5ccoc5)cc43)nc2)CC1 [Example 481]
SYSTEM_NAME: BT474
EXPERIMENTAL_RESULT: -0.22

COMPOUND: Cc1ccc2c(c1)CNC(=O)C2=CNc1ccc(N2CCOCC2)cc1 [Example 858]
SYSTEM_NAME: BT474
EXPERIMENTAL_RESULT: 1.54

COMPOUND: CC(C)(C)c1ccc2c(c1)/C(=C/NCc1ccn(-c3ccoc3)c(=O)c1)C(=O)NC2=O [Example 533]
SYSTEM_NAME: BT474
EXPERIMENTAL_RESULT: -0.31

COMPOUND: COC1CCN(Cc2ccc(N/C=C3\C(=O)NC(=O)c4ccc(-c5ccc(F)cc5)cc43)cc2)CC1 [Example 395]
SYSTEM_NAME: BT474
EXPERIMENTAL_RESULT: 0.17

COMPOUND: O=C1NC(=O)c2ccc(-c3ccccc3Cl)cc2C1=CNCc1ccc(O)c(O)c1 [Example 780]
SYSTEM_NAME: BT474
EXPERIMENTAL_RESULT: 1.25

COMPOUND: COc1ccc(CNC=C2C(=O)NC(=O)c3ccc(-c4ccccc4)cc32)cc1O [Example 832]
SYSTEM_NAME: BT474
EXPERIMENTAL_RESULT: 1.17

COMPOUND: CN1CCN(c2ccc(NC=C3C(=O)NC(=O)c4ccc(C=Cc5cnccn5)cc43)cc2)CC1 [Example 678]
SYSTEM_NAME: BT474
EXPERIMENTAL_RESULT: 0.96

COMPOUND: COC1CCN(Cc2ccc(N/C=C3\C(=O)NC(=O)c4ccc(I)cc43)cc2)CC1 [Example 394]
SYSTEM_NAME: BT474
EXPERIMENTAL_RESULT: 0.61

COMPOUND: CC(=O)Nc1cccc(-c2ccc3c(c2)C(=CNCc2ccc(O)c(O)c2)C(=O)NC3=O)c1 [Example 822]
SYSTEM_NAME: BT474
EXPERIMENTAL_RESULT: 1.04

COMPOUND: NS(=O)(=O)c1ccc(CNC=C2C(=O)NC(=O)c3ccc(-c4cc5ccccc5s4)cc32)cc1 [Example 635]
SYSTEM_NAME: BT474
EXPERIMENTAL_RESULT: 1.57

COMPOUND: CN1CCN(c2ccc(NC=C3C(=O)NC(=O)c4ccc(-c5ccc6[nH]ccc6c5)cc43)cc2)CC1 [Example 671]
SYSTEM_NAME: BT474
EXPERIMENTAL_RESULT: 0.45

COMPOUND: CN(C)CC1CCN(c2ccc(N/C=C3\C(=O)NC(=O)c4ccc(I)cc43)cc2)CC1 [Example 454]
SYSTEM_NAME: BT474
EXPERIMENTAL_RESULT: 1.02

COMPOUND: O=C1NCc2cc(Cl)ccc2C1=CNc1cccc(O)c1 [Example 856]
SYSTEM_NAME: BT474
EXPERIMENTAL_RESULT: 0.75

COMPOUND: CCN1CCCC1c1ccc(N/C=C2\C(=O)NC(=O)c3ccc(I)cc32)cc1 (stereo not drawn) [Example 465]
SYSTEM_NAME: BT474
EXPERIMENTAL_RESULT: 0.58

COMPOUND: O=C1NC(=O)c2ccc(C=CCc3ccccc3)cc2C1=CNCc1ccc(O)c(O)c1 [Example 660]
SYSTEM_NAME: BT474
EXPERIMENTAL_RESULT: 1.02

COMPOUND: N#CCc1ccc(NC=C2C(=O)NC(=O)c3ccc(-c4cc5ccccc5s4)cc32)cc1 [Example 627]
SYSTEM_NAME: BT474
EXPERIMENTAL_RESULT: 0.63

COMPOUND: O=C1NC(=O)c2ccc(I)cc2/C1=C/Nc1ccc(C2CCCN2CCO)cc1 (stereo not drawn) [Example 464]
SYSTEM_NAME: BT474
EXPERIMENTAL_RESULT: 0.82

COMPOUND: CCN1CCN(c2ccc(N/C=C3\C(=O)NC(=O)c4ccc(I)cc43)cn2)CC1 [Example 414]
SYSTEM_NAME: BT474
EXPERIMENTAL_RESULT: 0.79

COMPOUND: COc1ccc(CNC=C2C(=O)NC(=O)c3ccc(C=Cc4ccccc4)cc32)cc1O [Example 825]
SYSTEM_NAME: BT474
EXPERIMENTAL_RESULT: 1.39

COMPOUND: N#CCc1ccc(C=Cc2ccc3c(c2)C(=CNCc2ccc(O)c(O)c2)C(=O)NC3=O)cc1 [Example 805]
SYSTEM_NAME: BT474
EXPERIMENTAL_RESULT: 1.34

COMPOUND: CN1CCN(c2ccc(NC=C3C(=O)NC(=O)c4ccc(-c5ccco5)cc43)cc2)CC1 [Example 830]
SYSTEM_NAME: BT474
EXPERIMENTAL_RESULT: 0.08

COMPOUND: COCC(C)N1CCN(c2ccc(N/C=C3\C(=O)NC(=O)c4ccc(I)cc43)cc2)CC1 (stereo not drawn) [Example 399]
SYSTEM_NAME: BT474
EXPERIMENTAL_RESULT: 0.88

COMPOUND: CCCOc1ccc(CN/C=C2\C(=O)NC(=O)c3ccc(I)cc32)nc1Br [Example 493]
SYSTEM_NAME: BT474
EXPERIMENTAL_RESULT: 1.04

COMPOUND: O=C1NC(=O)c2ccc(-n3cccc3)cc2/C1=C/Nc1ccc(Br)cn1 [Example 444]
SYSTEM_NAME: BT474
EXPERIMENTAL_RESULT: 0.72

COMPOUND: CC(C)(C)OC(=O)N1CCN(c2ccc(N/C=C3\C(=O)NC(=O)c4ccc(I)cc43)cn2)CC1 [Example 409]
SYSTEM_NAME: BT474
EXPERIMENTAL_RESULT: 1.62
